System: T1, Extracellular domain (ECD) of the canine IL-4 receptor alpha-V5 epitope-AviTag-His Tag (canine)
T1 construct: monomeric form isolated by size exclusion; also called canine IL-4RA-V5-Avi-His; canine IL-4RA
T1 chain: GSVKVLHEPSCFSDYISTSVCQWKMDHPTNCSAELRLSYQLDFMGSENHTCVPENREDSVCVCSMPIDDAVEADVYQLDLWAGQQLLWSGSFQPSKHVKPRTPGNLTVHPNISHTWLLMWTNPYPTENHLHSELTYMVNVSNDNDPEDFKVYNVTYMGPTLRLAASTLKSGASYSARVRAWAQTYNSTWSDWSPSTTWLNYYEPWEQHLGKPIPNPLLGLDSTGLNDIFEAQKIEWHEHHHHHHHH
Protocol Summary: SPR, Fab-SASA captured on BSA;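 also: biacore T200 SPR, Fab-SASA variants from E. coli conditioned medium captured on BSA-coated CM5 chip, canine IL-4RA injected 120 s then 420 s dissociation, 1:1 model fit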
Measured Parameter: Ratio WT-kd/clone-kd
Lab note: write the figure by itself, no unit.

**Query** What value of Ratio WT-kd/clone-kd has been reported for the following binder? TB640_005 Fab-SASA VL-S57N (Fab, V domains shown, not shown: SASA tag then His-tag) VH: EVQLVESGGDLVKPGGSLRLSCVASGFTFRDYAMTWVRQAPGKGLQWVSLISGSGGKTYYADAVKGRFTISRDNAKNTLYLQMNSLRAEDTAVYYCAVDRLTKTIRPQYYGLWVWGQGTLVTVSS VL: DIVMTQTPLSLSVSPGETASISCRSSQSLLYSIGYNYLDWYLQKPGQSPQGLIYLGNKRASGVPDRFSGSGSGTDFTLRISRVEANDTGVYYCMQGLQSPLTFGQGTKLEIKR
**Result** 1.32

**Query** What value of Ratio WT-kd/clone-kd has been reported for the following binder? TB640_005 Fab-SASA VH-L101K (Fab, V domains shown, not shown: SASA tag then His-tag) VH: EVQLVESGGDLVKPGGSLRLSCVASGFTFRDYAMTWVRQAPGKGLQWVSLISGSGGKTYYADAVKGRFTISRDNAKNTLYLQMNSLRAEDTAVYYCAVDRKTKTIRPQYYGLWVWGQGTLVTVSS VL: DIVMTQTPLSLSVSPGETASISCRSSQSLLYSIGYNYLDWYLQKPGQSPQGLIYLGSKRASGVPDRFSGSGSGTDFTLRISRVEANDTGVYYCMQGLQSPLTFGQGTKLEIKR
**Result** 1.53

**Query** What value of Ratio WT-kd/clone-kd has been reported for the following binder? TB640_005 Fab-SASA VL-I33P (Fab, V domains shown, not shown: SASA tag then His-tag) VH: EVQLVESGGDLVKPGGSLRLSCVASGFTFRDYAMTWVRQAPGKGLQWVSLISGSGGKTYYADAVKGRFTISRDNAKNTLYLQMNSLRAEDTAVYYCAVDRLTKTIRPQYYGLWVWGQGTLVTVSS VL: DIVMTQTPLSLSVSPGETASISCRSSQSLLYSPGYNYLDWYLQKPGQSPQGLIYLGSKRASGVPDRFSGSGSGTDFTLRISRVEANDTGVYYCMQGLQSPLTFGQGTKLEIKR
**Result** 0.7
